From: ChEMBL document CHEMBL1671689

- Test system: Streptococcus pneumoniae
- Assay: Antimicrobial activity against multiple drug resistant Streptococcus pneumoniae serotype 19A by broth microdilution method
- Format: functional
Quantity Name: MIC90

compound=C[C@H]1COc2c(N3CCN(C)CC3)c(F)cc3c(=O)c(C(=O)O)cn1c23.C[C@H]1COc2c(N3CCN(C)CC3)c(F)cc3c(=O)c(C(=O)O)cn1c23.O result="1 µg/mL"

Look up MIC90: C[C@@H](O)[C@H]1C(=O)N2C(C(=O)O)=C(SCCNC=N)C[C@H]12 [IMIPENEM ANHYDROUS] 1 µg/mL

Look up MIC90: `CCO/N=C(\C(=O)N[C@@H]1C(=O)N2C(C(=O)[O-])=C(Sc3nc(-c4cc[n+](C)cc4)cs3)CS[C@H]12)c1nsc(NP(=O)(O)O)n1` 0.25 µg/mL

Look up MIC90: `CC[C@H]1OC(=O)[C@H](C)[C@@H](O[C@H]2C[C@@](C)(OC)[C@@H](O)[C@H](C)O2)[C@H](C)[C@@H](O[C@@H]2O[C@H](C)C[C@H](N(C)C)[C@H]2O)[C@](C)(O)C[C@@H](C)C(=O)[C@H](C)[C@@H](O)[C@]1(C)O` > 8 µg/mL
